biological target: Tyrosine-protein kinase Fes/Fps (Homo sapiens) (UniProt P07332); details: at 1 µM;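 further: mean inhibition of FES from the GSK PKIS kinase inhibitor screening set, assayed by Nanosyn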
Sequence (P07332 whole entry): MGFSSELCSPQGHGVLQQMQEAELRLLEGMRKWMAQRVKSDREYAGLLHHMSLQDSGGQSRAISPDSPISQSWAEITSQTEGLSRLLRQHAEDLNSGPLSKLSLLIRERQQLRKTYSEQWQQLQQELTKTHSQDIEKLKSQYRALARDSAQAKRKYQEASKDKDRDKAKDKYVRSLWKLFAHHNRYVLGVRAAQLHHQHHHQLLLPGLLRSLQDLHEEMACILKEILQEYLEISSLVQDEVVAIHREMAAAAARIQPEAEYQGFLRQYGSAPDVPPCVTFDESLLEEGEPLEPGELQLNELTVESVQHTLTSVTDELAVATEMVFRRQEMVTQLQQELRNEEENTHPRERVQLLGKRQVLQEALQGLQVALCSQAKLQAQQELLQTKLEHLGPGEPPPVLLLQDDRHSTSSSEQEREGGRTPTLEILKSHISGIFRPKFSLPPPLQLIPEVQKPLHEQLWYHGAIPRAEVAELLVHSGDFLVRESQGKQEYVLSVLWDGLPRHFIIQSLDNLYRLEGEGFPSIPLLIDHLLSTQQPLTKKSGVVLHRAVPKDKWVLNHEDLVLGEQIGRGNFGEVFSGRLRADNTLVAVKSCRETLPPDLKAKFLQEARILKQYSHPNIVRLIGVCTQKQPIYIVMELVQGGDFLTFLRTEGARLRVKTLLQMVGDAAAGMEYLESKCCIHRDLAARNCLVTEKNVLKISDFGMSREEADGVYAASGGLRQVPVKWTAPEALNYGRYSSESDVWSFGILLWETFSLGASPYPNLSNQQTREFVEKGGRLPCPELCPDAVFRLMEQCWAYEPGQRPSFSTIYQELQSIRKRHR
outcome_measure: inhibition (%)
Unit % implied. Number only.

COC(=O)Nc1nc2cc(Oc3ccc(NC(=O)Nc4cccc(Br)c4)cc3)ccc2[nH]1 : 2.25
COC(=O)c1cncc(/C=C/c2c(C)cc(O)cc2C)c1 : 3.05
CN(C)CCCn1c(-c2nonc2N)nc2cnccc21 : 2.95
Nc1nccc(-c2c(-c3ccc(F)cc3)ncn2CCCN2CCOCC2)n1 : 2.03
C[C@@H](Oc1cc(-n2cnc3ccc(OC[C@@H](O)CO)cc32)sc1C(N)=O)c1ccccc1Cl : 0.05

Attention now turns to another entry.
// query inhibition value for entry Cc1cc(O)cc(C)c1/C=C/c1cncc(C(=O)N(C)C)c1
1.31

---

biological target: Cyclin-dependent kinase 1 (Homo sapiens); details: at 0.1 µM;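 further: enzyme assay on the CDK1/cyclin B complex, reported as mean percent inhibition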
outcome_measure: inhibition (%)
Hi! Could you send only the number? It should be in %, unit omitted.

These solved cases illustrate the format of a correct answer.
CS(=O)(=O)CCNCc1nc(-c2ccc3ncnc(Nc4ccc(OCc5cccc(C(F)(F)F)c5)cc4)c3c2)cs1 : 2.33
Cc1ccc(O)cc1Nc1ccnc2ccc(S(C)(=O)=O)cc12 : 1.72
CN(C)c1cc2c(Nc3ccc4c(cnn4Cc4ccccc4)c3)ncnc2cn1 : 0.49
O=S(=O)(CCOCc1ccc(-c2ccc3ncnc(Nc4ccc(OCc5cccc(F)c5)c(Cl)c4)c3c2)o1)c1ccccc1 : 3.78

Could you now look at the following compound, please?
Look up inhibition: NS(=O)(=O)c1ccc(-c2cc3ccncc3cc2OCc2ccccc2)cc1
-0.03

---

biological target: Serine/threonine-protein kinase D3 (Homo sapiens); settings: at 1 µM;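 further: values are mean inhibition figures against PRKD3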
This listing pairs compounds with measured inhibition.
Reply numerically in %, unit not repeated.

These solved cases illustrate the format of a correct answer.
CN(c1ccc(NC(=O)Nc2ccc(OC(F)(F)F)cc2)cc1)c1ccnc(Nc2cccc(S(N)(=O)=O)c2)n1 : 3.42
CCn1c(-c2nonc2N)nc2c(C#CC(C)(C)O)nc(OCCNC)cc21 : 9.81
C[C@@H](Oc1cc(-n2cnc3ccc(OC[C@@H](O)CO)cc32)sc1C(N)=O)c1ccccc1Cl : 0.06

Data request, read-out inhibition, for CN(C)CCCn1c(-c2nonc2N)nc2cnccc21
7.35

Next up: CC(C)c1ccc2c(c1)NC(=O)/C2=N/Nc1ccc(S(N)(=O)=O)cc1
-0.32

---

target: Testis-specific serine/threonine-protein kinase 1 (Homo sapiens) (UniProt Q9BXA7); settings: at 1 µM;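 further: reported value is the mean inhibition, from the GSK PKIS kinase screening panel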
Sequence (Q9BXA7 whole entry): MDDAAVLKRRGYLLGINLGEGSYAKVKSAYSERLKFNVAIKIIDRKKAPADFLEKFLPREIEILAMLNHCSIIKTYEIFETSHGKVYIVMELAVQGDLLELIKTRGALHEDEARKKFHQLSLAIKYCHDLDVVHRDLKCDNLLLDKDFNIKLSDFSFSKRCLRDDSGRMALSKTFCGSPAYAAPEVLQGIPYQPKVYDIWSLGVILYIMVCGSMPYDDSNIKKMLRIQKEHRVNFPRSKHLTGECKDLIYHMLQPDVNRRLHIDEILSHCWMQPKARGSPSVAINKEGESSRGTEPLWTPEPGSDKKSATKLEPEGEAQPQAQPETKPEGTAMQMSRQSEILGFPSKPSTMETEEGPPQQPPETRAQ
outcome_measure: inhibition (%)
Numbers only here, please. The scale is %.

COc1ccc2ncnc(Nc3ccc(OCc4ccccc4)cc3)c2c1 : 3.16
CCn1c(-c2nonc2N)nc2c(C#CC(C)(C)O)nc(OCCNC)cc21 : 18

inhibition for Cc1cc(O)cc(C)c1/C=C/c1cncc(C(=O)N(C)C)c1 ?
0.84

---

target: Proto-oncogene tyrosine-protein kinase ROS (Homo sapiens); details: at 1 µM;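 further: value given is the mean percent inhibition of ROS kinase activity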
Catalogue of inhibition values
The response must be a number in % with no trailing unit.

Cc1cc(-c2ccccn2)cc(C)c1/C=C/c1cncc(-c2nn[nH]n2)c1 : 10.9
ON=C1CCc2cc(-c3nc(C4CCNCC4)[nH]c3-c3ccncc3)ccc21 : 2.47
Oc1cccc(-c2nc(-c3ccccc3)[nH]c2-c2ccncc2)c1 : 9.95

# get_value(readout='inhibition', item= Cc1ccc(C(=O)NC2CC2)cc1-c1ccc2[nH]ncc2c1 )
1.49

Next record, please: Cc1ccc2c(c1)/C(=N/Nc1ccc(S(N)(=O)=O)cc1)C(=O)N2
4.27

Now consider Cc1cc(Cl)cc2c1NC(=O)C2=NNc1ccc(S(N)(=O)=O)cc1 and answer again.
3.14

Another molecule to look at: c1ccc(Nc2ncc(-c3ccccc3)o2)cc1
5.92

How about CN(C)c1cc2c(Nc3ccc4c(cnn4Cc4ccccc4)c3)ncnc2cn1 ?
2.03

Also CN(c1ccc(NC(=O)Nc2ccc(OC(F)(F)F)cc2)cc1)c1ccnc(Nc2cccc(S(N)(=O)=O)c2)n1 , if possible.
66.9

Now the same for [O-][S+]1CCN(Cc2ccc(-c3ccc4ncnc(Nc5ccc(OCc6ccccc6)c(Cl)c5)c4c3)o2)CC1
3.8

// repeat for CCn1c(-c2nonc2N)nc2c(C#CC(C)(C)O)nc(OCCNC)cc21 and report
6.96

Entry COc1cc2ncn(-c3cc(OCc4ccccc4S(C)(=O)=O)c(C#N)s3)c2cc1OC please
68.7

Next record, please: CC(C)c1ccc2c(c1)NC(=O)/C2=N/Nc1ccc(S(N)(=O)=O)cc1
3.01

Further, for Nc1nccc(C#Cc2cncnc2Nc2ccc(OCc3cccc(F)c3)c(Cl)c2)n1 ?
16.2

Another molecule: COc1cccc(-n2nc(C)c3c(N/N=C(\C)c4ccncc4)ncnc32)c1
4.49

Queued: N#Cc1c(NC(=O)c2ccccc2F)sc2c1CCCC2
0.32

---

molecular target: Calcium/calmodulin-dependent protein kinase type II subunit alpha (Homo sapiens) (UniProt Q9UQM7); details: at 0.1 µM;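 further: reported values are averages (mean inhibition of CAMK2A)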
Sequence (Q9UQM7 whole entry): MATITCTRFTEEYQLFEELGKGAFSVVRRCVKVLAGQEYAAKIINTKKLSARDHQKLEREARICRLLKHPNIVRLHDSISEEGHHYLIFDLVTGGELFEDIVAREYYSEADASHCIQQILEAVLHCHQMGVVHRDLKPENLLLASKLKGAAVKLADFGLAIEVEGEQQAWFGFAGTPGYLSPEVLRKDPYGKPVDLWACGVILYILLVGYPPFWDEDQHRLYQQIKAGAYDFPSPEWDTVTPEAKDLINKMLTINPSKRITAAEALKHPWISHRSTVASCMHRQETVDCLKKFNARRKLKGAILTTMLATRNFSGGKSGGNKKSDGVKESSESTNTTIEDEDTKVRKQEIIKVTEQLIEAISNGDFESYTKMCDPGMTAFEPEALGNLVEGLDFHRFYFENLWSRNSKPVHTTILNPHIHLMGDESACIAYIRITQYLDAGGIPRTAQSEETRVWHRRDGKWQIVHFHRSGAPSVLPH
outcome_measure: inhibition (%)
Give the value in % but do not write % after it.

Previously resolved entries follow.
NC(=O)c1sc(-n2cnc3ccccc32)cc1OCc1ccccc1Br : 1.7
Cc1ccc2c(-c3ccnc(Nc4cccc(C(F)(F)F)c4)n3)c(-c3ccccc3)nn2n1 : 2.64

I have this compound here, COc1cccc(-n2nc(C)c3c(N/N=C(\C)c4ccncc4)ncnc32)c1 , and I need its recorded inhibition.
-1.72

# repeat for Nc1nccc(-c2c(-c3ccc(F)cc3)ncn2CCCN2CCOCC2)n1
2.67

Further, for FC(F)(F)c1ccc(-c2nn3ncccc3c2-c2ccnc(Nc3ccc4c(c3)OCCO4)n2)cc1 ?
-2.94

Another: COc1ccc(-c2nn3ncccc3c2-c2ccnc(Nc3cccc(C(F)(F)F)c3)n2)cc1
2.25

Proceed to CN(C)CCCn1c(-c2nonc2N)nc2cnccc21
2.81

Entry NS(=O)(=O)c1cccc(-c2cc3ccncc3cc2OCc2ccccc2)c1 please
4.23

What about this compound? COc1cc(/C=N/Nc2ncnc3c2cnn3C(C)C)ccc1O
-0.2

Note, next up: CN(c1ccc(NC(=O)Nc2ccc(OC(F)(F)F)cc2)cc1)c1ccnc(Nc2cccc(S(N)(=O)=O)c2)n1
3.05

Another compound: Cc1cc(-c2ccccn2)cc(C)c1/C=C/c1cncc(-c2nn[nH]n2)c1
2.42

Now try NS(=O)(=O)c1ccc(NC=C2C(=O)Nc3ccc4ncsc4c32)cc1 .
4.91

Next compound: O=C1Nc2ccccc2/C1=C/Nc1ccc2[nH]c(=O)[nH]c2c1
3.83

Also Oc1cccc(-c2nc(-c3ccccc3)[nH]c2-c2ccncc2)c1 , if possible.
3.36

Please do the same for Cc1ccc2c(-c3ccnc(Nc4ccc5c(c4)OCCO5)n3)c(-c3ccc(C(F)(F)F)cc3)nn2n1 as well.
0.68

And what about the compound NS(=O)(=O)c1ccc(Nc2cc(-c3cccc(O)c3)n[nH]2)cc1 ?
4.18

What do we get for O=C1Nc2ccc(-c3cccnc3)cc2C1=Cc1cc(Br)c(O)c(Br)c1 ?
2.95

Next up: Cc1cc(Cl)cc2c1NC(=O)C2=NNc1ccc(S(N)(=O)=O)cc1
4.14

Follow-up item: Cc1ccc2c(c1)/C(=N/Nc1ccc(S(N)(=O)=O)cc1)C(=O)N2
2.02

Let us now turn to COc1cc2ncnc(Nc3ccc4c(cnn4Cc4ccccc4)c3)c2cc1OC
0.08

Would you kindly repeat that for COC(=O)c1cncc(/C=C/c2c(C)cc(O)cc2C)c1 ?
1.91

Entry to check: CN(C)c1cc2c(Nc3ccc4c(cnn4Cc4ccccc4)c3)ncnc2cn1
2.88

---

Property: inhibition; scope: individual compounds
target: Activated CDC42 kinase 1 (Homo sapiens) (UniProt Q07912); conditions: at 1 µM
Sequence (Q07912 whole entry, looked up): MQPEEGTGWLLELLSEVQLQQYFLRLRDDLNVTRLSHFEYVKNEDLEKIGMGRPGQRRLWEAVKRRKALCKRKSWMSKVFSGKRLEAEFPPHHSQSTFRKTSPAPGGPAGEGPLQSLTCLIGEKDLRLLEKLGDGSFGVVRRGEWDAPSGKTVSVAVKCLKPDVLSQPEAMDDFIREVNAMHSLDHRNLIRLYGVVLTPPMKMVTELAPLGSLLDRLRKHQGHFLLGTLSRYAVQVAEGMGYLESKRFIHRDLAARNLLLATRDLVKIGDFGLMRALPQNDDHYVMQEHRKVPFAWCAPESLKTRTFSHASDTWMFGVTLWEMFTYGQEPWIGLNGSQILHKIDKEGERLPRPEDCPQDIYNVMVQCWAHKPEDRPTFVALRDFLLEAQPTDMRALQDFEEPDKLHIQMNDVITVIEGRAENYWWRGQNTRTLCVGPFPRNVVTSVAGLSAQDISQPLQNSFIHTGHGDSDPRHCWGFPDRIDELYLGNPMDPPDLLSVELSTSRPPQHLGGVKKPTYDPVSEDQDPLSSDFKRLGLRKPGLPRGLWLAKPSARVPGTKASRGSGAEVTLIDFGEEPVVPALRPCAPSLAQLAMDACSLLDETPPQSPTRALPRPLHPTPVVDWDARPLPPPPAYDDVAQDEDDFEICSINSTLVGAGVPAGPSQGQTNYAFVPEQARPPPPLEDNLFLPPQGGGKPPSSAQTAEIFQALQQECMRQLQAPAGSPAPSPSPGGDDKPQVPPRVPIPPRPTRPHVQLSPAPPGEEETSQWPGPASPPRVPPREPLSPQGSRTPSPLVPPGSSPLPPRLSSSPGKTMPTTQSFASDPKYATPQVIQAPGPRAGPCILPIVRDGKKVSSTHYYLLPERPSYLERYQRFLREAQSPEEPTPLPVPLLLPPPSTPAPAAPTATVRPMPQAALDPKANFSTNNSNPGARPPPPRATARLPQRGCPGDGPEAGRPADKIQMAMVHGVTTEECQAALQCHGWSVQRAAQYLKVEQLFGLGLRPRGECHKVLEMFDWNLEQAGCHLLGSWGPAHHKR
Description: GSK_PKIS: TNK2 mean inhibition at 1 uM [Nanosyn]
Entry format: amount then unit.

CCOc1nccc2c1nc(-c1nonc1N)n2CC : 7.54%
CC(C)c1ccc2c(c1)NC(=O)/C2=N/Nc1ccc(S(N)(=O)=O)cc1 : 4.69%
Cc1ccc(O)cc1Nc1ccnc2ccc(S(C)(=O)=O)cc12 : 54.8%
Cc1ccc(NC(=O)CC2CC2)cc1-c1ccc(C(=O)NCC2CC2)cc1 : 3.94%
CN(C)c1cc2c(Nc3ccc4c(cnn4Cc4ccccc4)c3)ncnc2cn1 : 1.68%

Looking for the measured inhibition of Nc1ccc(C#Cc2cncnc2Nc2ccc(OCc3cccc(F)c3)c(Cl)c2)cc1 , can you help?
1.81%

Do the same for CN(C)C(=O)O[C@@H]1CN[C@@H](C#Cc2cc3ncnc(Nc4ccc(OCc5cccc(F)c5)c(Cl)c4)c3s2)C1 please
-0.22%

Repeat for the following compound: C[C@@H](Oc1cc(-n2cnc3ccc(OC[C@@H](O)CO)cc32)sc1C(N)=O)c1ccccc1Cl
2.04%

And the next one, CCn1c(-c2nonc2N)nc2c(C#CC(C)(C)O)nc(OCCNC)cc21 ?
1.43%

---

biological target: Homeodomain-interacting protein kinase 1 (Homo sapiens); conditions: at 0.1 µM
Listed here are molecules together with their documented inhibition.
Value expressed in %; do not type the unit.

CCn1c(-c2nonc2N)nc2c(C#CC(C)(C)O)nc(OCCNC)cc21 : -1.59

Please state recorded inhibition (tested on Homeodomain-interacting protein kinase 1 (Homo sapiens)) of NS(=O)(=O)c1ccc(N/N=C2\C(=O)Nc3ccc(Cl)cc32)cc1;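 further: each value is a mean percent inhibition of HIPK1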
2.46

Item: COc1cccc(-n2ncc3c(N/N=C/c4ccc(S(C)(=O)=O)cc4)ncnc32)c1
21.4

Entry CCS(=O)(=O)c1ccc(OC)c(Nc2nccc(N(C)c3ccc4c(C)n[nH]c4c3)n2)c1 please
-2.02

Entry COc1cc2ncnc(Nc3ccc(C)c(O)c3)c2cc1OC please
2.85

Next molecule: OCc1ccc(-c2nc(-c3ccccn3)c(-c3ccc4c(c3)OCO4)[nH]2)cc1
0.23

Source: ChEMBL document CHEMBL1961873
